Reference for the values: ChEMBL document CHEMBL1201862

Each entry below carries its reported AC50.
- Target Of Assay: Trypsin (Sus scrofa)
- Sequence (P00761 whole entry): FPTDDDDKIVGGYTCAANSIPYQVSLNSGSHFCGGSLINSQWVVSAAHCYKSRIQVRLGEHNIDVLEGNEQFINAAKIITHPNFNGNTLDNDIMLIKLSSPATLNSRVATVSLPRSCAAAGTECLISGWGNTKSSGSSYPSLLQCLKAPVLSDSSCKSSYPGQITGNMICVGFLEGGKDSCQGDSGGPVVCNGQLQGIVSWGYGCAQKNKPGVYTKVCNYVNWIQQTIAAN
- Measurement Protocol: porcine trypsin inhibitors, dose response, selectivity assay for Rce1 protease inhibitor project, biochemical, quenched peptide fluorescence, cherry-pick (AID 488789)
Activity calls are given as the source filed them.

Molecule	AC50
c1ccc(CCNc2ccnc3cc4ccccc4cc23)cc1	11.2 µM (active)
C=CCn1cc(-c2ccccc2)cc(C#N)c1=O	7.96 µM (active)
COc1ccccc1-c1coc2c(CN3CCOCC3)c(O)ccc2c1=O	44.4 µM (active)
CCOC(=O)c1nc2cc3n(c(C)c-2c1C)C(C)C(CC)=C3C (centres undefined)	7.97 µM (active)

----------
- Target Of Assay: Peroxisome proliferator-activated receptor gamma/Nuclear receptor coactivator 1 (Homo sapiens, UniProt P37231);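 further: agonist potency as compounds enhance coactivator SRC-1 recruitment to PPARgamma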
- Sequence (P37231 whole entry): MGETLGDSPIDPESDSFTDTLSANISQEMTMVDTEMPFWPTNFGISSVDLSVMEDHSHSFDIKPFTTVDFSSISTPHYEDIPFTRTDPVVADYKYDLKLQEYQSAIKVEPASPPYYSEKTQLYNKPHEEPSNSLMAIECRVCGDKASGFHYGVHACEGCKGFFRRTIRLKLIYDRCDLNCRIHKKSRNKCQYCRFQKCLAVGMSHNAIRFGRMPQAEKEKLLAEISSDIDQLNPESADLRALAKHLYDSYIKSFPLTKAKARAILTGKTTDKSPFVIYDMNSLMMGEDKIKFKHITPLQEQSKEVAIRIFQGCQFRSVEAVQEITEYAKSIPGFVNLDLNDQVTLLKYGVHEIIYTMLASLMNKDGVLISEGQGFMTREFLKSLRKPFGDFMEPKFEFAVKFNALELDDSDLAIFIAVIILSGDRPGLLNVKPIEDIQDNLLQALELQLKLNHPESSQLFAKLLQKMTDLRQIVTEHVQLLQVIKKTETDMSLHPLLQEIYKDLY
- Sequence (Q15788 whole entry, further chain): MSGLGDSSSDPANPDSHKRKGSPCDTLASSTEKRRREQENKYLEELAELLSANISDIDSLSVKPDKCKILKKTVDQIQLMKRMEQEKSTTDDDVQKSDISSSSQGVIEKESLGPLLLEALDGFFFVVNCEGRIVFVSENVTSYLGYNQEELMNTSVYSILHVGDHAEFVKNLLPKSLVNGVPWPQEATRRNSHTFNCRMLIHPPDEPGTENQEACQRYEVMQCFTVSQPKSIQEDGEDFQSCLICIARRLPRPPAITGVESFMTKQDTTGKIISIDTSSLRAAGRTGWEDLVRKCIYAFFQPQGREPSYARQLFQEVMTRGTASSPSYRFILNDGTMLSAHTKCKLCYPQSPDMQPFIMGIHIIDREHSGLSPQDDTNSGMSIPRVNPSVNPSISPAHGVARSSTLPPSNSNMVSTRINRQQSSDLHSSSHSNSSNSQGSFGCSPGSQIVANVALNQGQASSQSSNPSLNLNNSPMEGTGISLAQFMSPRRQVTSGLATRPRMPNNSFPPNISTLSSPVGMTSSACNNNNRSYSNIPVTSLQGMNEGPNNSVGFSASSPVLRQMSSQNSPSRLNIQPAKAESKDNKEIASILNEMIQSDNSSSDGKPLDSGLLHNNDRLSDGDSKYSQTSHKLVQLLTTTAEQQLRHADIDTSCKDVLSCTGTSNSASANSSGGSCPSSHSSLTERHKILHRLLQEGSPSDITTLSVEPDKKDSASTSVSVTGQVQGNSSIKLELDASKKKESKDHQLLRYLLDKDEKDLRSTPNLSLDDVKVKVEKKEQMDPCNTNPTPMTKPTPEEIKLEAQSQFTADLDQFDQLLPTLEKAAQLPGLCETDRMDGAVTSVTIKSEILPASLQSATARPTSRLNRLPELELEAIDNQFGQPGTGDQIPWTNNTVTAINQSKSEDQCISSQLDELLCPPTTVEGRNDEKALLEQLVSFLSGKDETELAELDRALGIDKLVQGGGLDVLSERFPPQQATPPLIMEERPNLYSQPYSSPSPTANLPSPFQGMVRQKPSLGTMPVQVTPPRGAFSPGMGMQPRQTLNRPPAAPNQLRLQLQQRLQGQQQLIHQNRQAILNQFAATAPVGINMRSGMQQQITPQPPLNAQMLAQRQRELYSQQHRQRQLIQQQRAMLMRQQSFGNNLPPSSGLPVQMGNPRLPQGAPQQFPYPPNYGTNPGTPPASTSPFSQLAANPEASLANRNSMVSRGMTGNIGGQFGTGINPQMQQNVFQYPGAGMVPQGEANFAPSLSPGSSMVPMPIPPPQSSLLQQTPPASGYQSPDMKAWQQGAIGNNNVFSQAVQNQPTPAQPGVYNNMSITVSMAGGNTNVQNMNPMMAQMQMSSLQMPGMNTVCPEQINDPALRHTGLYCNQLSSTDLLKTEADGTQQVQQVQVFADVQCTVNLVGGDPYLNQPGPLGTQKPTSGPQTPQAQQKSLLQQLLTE
- Format: functional

Query Smiles	EC50
Cc1ccccc1-n1c(S)nnc1-c1ccco1	> 79.4 µM (not active)
CCc1cc2cc3c(cc2nc1SCC(=O)Nc1cc(C)on1)OCO3	> 79.4 µM (not active)
CCN(CC)CCCNC(=O)c1ccc2c(SCC(=O)O)c3c(nc2c1)CCC3	> 79.4 µM (not active)
NC(N)=Nc1nc(CSCCC(N)=NS(N)(=O)=O)cs1	> 79.4 µM (not active)

----------
- Target Of Assay: Dual specificity tyrosine-phosphorylation-regulated kinase 1A (Rattus norvegicus, UniProt Q63470)
- Assay type: biochemical, Homo sapiens
Active and inactive are the calls of the source.
Each entry below carries its reported AC50.
Experimental Endpoint: AC50

Compound	Experimental Endpoint	Experimental Result
Fc1ccc(NC(S)=Nc2cccc3cnccc23)cc1	AC50	9.44 µM (active)
CCOc1cc(-c2nc3ccccc3s2)ccc1O	AC50	5.92 µM (active)
CCOC(=O)c1ccc2ncc(C(=O)OCC)c(Nc3ccc(N4CCOCC4)cc3)c2c1	AC50	0.257 µM (active)
Cn1c(C(=O)NCC2CCCO2)cc2c(=O)n(C)c3ccccc3c21 (stereo not given)	AC50	13.4 µM (active)
CSC1=NSC2=NC(=O)/C(=C/c3coc4ccc(O)cc4c3=O)C(=N)N12	AC50	7.62 µM (active)

----------
Each entry below carries its reported EC50.
- Measurement Protocol: inhibitors of intracellular T. cruzi replication, confirmation, NIH3T3 host cells, beta-gal luminescence (AID 2044);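 further: intracellular parasites grown in NIH/3T3 mouse fibroblasts as host cells; luminescent beta-galactosidase reporter signal from transgenic T. cruzi replicating inside host cells; inhibitors lower the luminescence signal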
- Assay type: functional, cell-based
Active and inactive are the calls of the source.
Experimental Endpoint: EC50

Query Smiles	Experimental Endpoint	Experimental Result
COc1cc(/C=C(\C#N)c2nc3ccccc3[nH]2)ccc1Oc1ccc([N+](=O)[O-])cn1	EC50	1.12 µM (active)
COc1cc(/C=N/Nc2nc(Nc3ccccc3)nc(N3CCOCC3)n2)ccc1OC(=O)c1ccco1	EC50	0.895 µM (active)
Cn1c(-c2ccccc2)cc2c3no[n+]([O-])c3ccc21	EC50	0.707 µM (active)
O=C(Nc1cccc(-c2cn3cccnc3n2)c1)c1ccc(Br)o1	EC50	0.554 µM (active)
CCCCCn1c(N)c(-c2nc3ccccc3s2)c2c([N+](=O)[O-])nn(C)c(=O)c21	EC50	2.14 µM (active)
CN1CCN(C(=O)COc2ccc(S(=O)(=O)N(C)Cc3ccccc3)cc2)CC1	EC50	0.189 µM (active)
COc1cc(/C=N/N=C(N)N)ccc1OCc1ccc(Cl)cc1	EC50	0.397 µM (active)
COc1ccccc1/C=C/C(=O)NCC(=O)N/N=C/c1ccccc1[N+](=O)[O-]	EC50	1.59 µM (active)
Cc1cccc(NC(=S)/N=C(\N)Nc2nc(C)c3ccc(C)cc3n2)c1	EC50	2.12 µM (active)
Cc1cccc(NC(=O)c2[nH]cnc2C(=O)N[C@@H](CCCCNC(=O)OC(C)(C)C)C(=O)OC(C)(C)C)c1	EC50	2.44 µM (active)

----------
Parameter AC50, tested on Cytochrome P450 2D6 (Homo sapiens), listed per item.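 Further: CYP2D6 member of a cytochrome P450 panel assay.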
Sequence (P10635 whole entry): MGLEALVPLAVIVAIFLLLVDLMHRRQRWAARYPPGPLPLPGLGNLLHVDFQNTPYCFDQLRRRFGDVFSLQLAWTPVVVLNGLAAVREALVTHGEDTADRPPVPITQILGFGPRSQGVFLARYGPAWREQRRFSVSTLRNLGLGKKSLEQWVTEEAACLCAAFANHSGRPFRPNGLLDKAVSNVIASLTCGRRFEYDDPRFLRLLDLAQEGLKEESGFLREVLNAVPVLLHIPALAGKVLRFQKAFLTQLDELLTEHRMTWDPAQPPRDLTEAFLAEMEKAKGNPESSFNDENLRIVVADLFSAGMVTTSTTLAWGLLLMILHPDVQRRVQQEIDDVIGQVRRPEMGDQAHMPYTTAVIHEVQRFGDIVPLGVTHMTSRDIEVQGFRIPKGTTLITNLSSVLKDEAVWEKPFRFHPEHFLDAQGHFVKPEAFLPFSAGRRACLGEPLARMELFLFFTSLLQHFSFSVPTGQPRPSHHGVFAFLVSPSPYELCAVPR
Experimental Endpoint: AC50

Compound	Experimental Result
C[C@H](CN(C)C)C(O)(c1ccccc1)c1ccccc1	3.98 µM (inconclusive)
COc1cccc(-c2cc(C(=O)Nc3cccc(O)c3)no2)c1	22.4 µM (inconclusive)
O=C1CC(NCCC2=CCCCC2)C(=O)N1c1cccc(Cl)c1Cl (stereo unspecified)	15.8 µM (inconclusive)
CC(Cc1ccccc1)C(=O)NCc1ccccn1 (stereo unspecified)	39.8 µM (inconclusive)
N/C(CSS(=O)(=O)O)=N\[C@@H]1C[C@H]2CC[C@@H]1C2	7.94 µM (inconclusive)
O=C(Cc1ccccc1[N+](=O)[O-])NCc1ccccc1Cl	15.8 µM (inconclusive)
COC(=O)C1CC1C(NC(=O)[C@H]1CCCCN1)c1ccccc1 (stereo partly specified)	20 µM (inconclusive)
Cc1cccc(NC(=O)CSc2nc(COc3ccccc3)nc3ccccc23)c1C	12.6 µM (inconclusive)
C=CCn1c(SCc2ccc(C(=O)Nc3ccccc3)cc2)nnc1-c1ccccc1	22.4 µM (inconclusive)
O=C(N/N=C\c1cccc(O)c1)c1ccncc1	3.16 µM (inconclusive)
CCCN(C(=O)Cc1n[nH]c(N)n1)C1(C(=O)Nc2ccccc2C)CCCCC1	17.8 µM (inconclusive)

----------
- Target Of Assay: Replicative DNA helicase DnaB (Mycobacterium tuberculosis)
- Measurement Protocol: DnaB intein splicing inhibitors, dose response, biochemical, cell-free fluorescence (AID 449749)
- Type: functional
Active and inactive are the calls of the source.
Outcome codes: active, inactive

Compound	Qualitative Label
Cc1cccc(N2C(=O)C(Cl)=C(N3CCOCC3)C2=O)c1	active
COc1ccc(C2C(C#N)=C(N)Oc3[nH]nc(C)c32)cc1CSc1ccccn1 (stereo unspecified)	active
Oc1nc2ccccc2n2c(-c3ccccc3)nnc12	inactive
CCOc1ccc2c(c1)C(NC(C)=O)C(=O)N2CCN1CCOCC1 (stereo unspecified)	active
CC(C)(C)c1csc(NC(=O)c2c(F)c(F)c(F)c(F)c2F)n1	active
CC1=NNC(=O)C1Cc1ccccc1C (stereo unspecified)	active
O=C(C(Cl)Cl)N1c2ccccc2OCC1c1ccccc1 (stereo unspecified)	active
Cc1ccc(-c2ccc(/C=N/NC3=NC(=O)C(CC(=O)O)S3)o2)c([N+](=O)[O-])c1 (stereo unspecified)	active
Cc1ccc(Sc2oc(/C=N/n3cnnc3)cc2Br)cc1	active
COc1ccc(/C=C/C(=O)c2ccncc2)c2ccccc12	inactive
Clc1ccc(C2=C3CCCCn4c(-c5ccccc5)c[n+](c43)C2)cc1	inactive

----------
- Target Of Assay: FAD-linked sulfhydryl oxidase ALR (Homo sapiens, UniProt P55789)
- Sequence (P55789 whole entry): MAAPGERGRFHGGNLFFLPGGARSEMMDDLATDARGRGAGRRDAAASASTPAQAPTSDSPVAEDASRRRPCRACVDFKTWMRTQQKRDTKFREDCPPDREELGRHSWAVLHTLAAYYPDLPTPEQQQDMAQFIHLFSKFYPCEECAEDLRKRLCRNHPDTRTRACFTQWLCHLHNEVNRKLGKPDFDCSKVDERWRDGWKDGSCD
- Measurement Protocol: inhibitors of human ALR sulfhydryl oxidase, dose response, biochemical, H2O2 detection, luminescence, cherry-pick (AID 493248)
The source made the active and inactive calls.
Each entry below carries its reported AC50.

Compound	AC50
CSc1nc(/C=C2\C=Nc3ccccc32)c(O)n1C	4030 nM (active)
C=CCn1c(S)nnc1C(C)NC(=O)c1cccc(C)c1 (configuration not stated)	4010 nM (active)
COc1ccc(-c2[nH]nc(C)c2-c2ccccc2OC)c(O)c1	< 5 nM (active)
CCCn1c(S)nnc1C(C)NC(=O)c1ccccc1 (configuration not stated)	3000 nM (active)
Cn1c(-c2ccc3c(c2)OCO3)cnc1NCc1cccc(O)c1	2490 nM (active)
O=C(CN1CCN(c2ccccc2O)CC1)NCCCc1ccccc1	301 nM (active)
Cc1ccc(Sc2ccc(C=C3C(=O)N(C)C(=O)N(C)C3=O)o2)cc1	250 nM (active)
COc1ccc(C(=O)N2CCN=C2SCc2cccnc2)c(OC)c1	67 nM (active)
O=C1CC(NNc2ccccc2)C(=O)N1c1ccccc1 (configuration not stated)	382 nM (active)
COc1cc(/C=c2\sc3n(c2=O)CCCN=3)ccc1O	4190 nM (active)
COc1ccc(-c2cn3c4c(sc3n2)CCCC4)cc1	325 nM (active)
Nc1ccc(OC(=O)Nc2ccc(O)cc2)cc1	1380 nM (active)
O=C(CN1C(=O)NC2(CCCC2)C1=O)Nc1cc(Cl)ccc1N1CCCC1	244 nM (active)
COc1cc(/C=C2\SC(=S)N(CC(=O)O)C2=O)ccc1OS(=O)(=O)c1ccc(C)cc1	2070 nM (active)
O=C(Nc1ccc(Nc2ccccc2)cc1)c1ccco1	5940 nM (active)
CCN(CCNC(=O)C1CCN(S(=O)(=O)c2cccc3nsnc23)CC1)c1ccccc1	4690 nM (active)
CC(C)=NNc1nc(-c2ccc(N3C(=O)CCC3=O)cc2)cs1	119 nM (active)

----------
Parameter AC50, tested on Cytochrome P450 2C9 (Homo sapiens, UniProt P11712), listed per item.
Sequence (P11712 whole entry): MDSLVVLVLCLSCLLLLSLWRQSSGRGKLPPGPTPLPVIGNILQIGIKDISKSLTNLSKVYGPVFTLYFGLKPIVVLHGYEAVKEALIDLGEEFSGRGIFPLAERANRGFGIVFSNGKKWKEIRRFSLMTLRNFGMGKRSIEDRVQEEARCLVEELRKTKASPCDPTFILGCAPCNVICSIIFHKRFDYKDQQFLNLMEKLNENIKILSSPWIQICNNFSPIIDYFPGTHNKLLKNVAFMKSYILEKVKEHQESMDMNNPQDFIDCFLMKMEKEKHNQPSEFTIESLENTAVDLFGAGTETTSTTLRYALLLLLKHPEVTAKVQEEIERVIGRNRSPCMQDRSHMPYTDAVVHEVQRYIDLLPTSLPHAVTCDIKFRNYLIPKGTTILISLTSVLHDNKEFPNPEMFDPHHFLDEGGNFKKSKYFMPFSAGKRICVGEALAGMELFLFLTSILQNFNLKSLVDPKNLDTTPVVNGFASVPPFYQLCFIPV

Molecule	AC50
COc1ccccc1NC(=O)Cn1nnc(-c2ccccc2NC(=O)c2cc3ccccc3oc2=O)n1	0.794 µM (inconclusive)
COc1ccc(C(=O)n2nc(-c3ccccc3)nc2SC)cc1	0.141 µM (inconclusive)
O=C(O)c1ccccc1-c1ccccc1C(=O)Nc1ccc2c(c1)Cc1ccccc1-2	3.16 µM (inconclusive)
c1ccc(C(c2ccccc2)N2CC3(CCNCC3)C2)cc1	39.8 µM (inconclusive)
O=C1OC(OC2CCCCC2)(c2ccccc2)c2ccccc21 (stereo unspecified)	15.8 µM (inconclusive)
COc1cccc2cc3c(=O)oc4ccccc4c3nc12	2.82 µM (inconclusive)
